- SYSTEM_NAME: GDP-bound KRAS protein (aa 1-169) G12C/C118A (Homo sapiens (Human), UniProt P01116, C118A/G12C)
- Sequence (P01116 other isoform, or with tags, fused parts or gaps G12C/C118A): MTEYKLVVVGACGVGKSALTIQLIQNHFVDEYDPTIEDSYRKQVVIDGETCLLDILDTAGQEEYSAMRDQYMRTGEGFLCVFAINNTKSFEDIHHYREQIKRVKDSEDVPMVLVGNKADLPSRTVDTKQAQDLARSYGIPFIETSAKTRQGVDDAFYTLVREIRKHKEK
- MEASUREMENT_PROTOCOL: Coupled Nucleotide Exchange Assay (KRAS G12C)
- Assay type: biochemical
- STUDY_CONDITIONS: 20 h compound pre-incubation; read-out: GDP KRAS G12C 20 h Coupled Exchange IC50 IP
pIC50: −log10 of the molar value.
Rule: true for pIC50 not less than 6, false for anything less.

- Cc1ccnc(C(C)C)c1-n1c(=O)nc(N2CCN(C(=O)[C@H]3CN3)C[C@@H]2C)c2cc(Cl)c(-c3ccccc3F)nc21: false
- Cc1ccnc(C(C)C)c1-n1c(=O)nc(NC2CN(C(=O)C3CO3)C2)c2cc(Cl)c(-c3ccccc3F)nc21 (stereo not drawn): false
- Cc1ccnc(C(C)C)c1-n1c(=O)nc(N2CCN(C(=O)[C@@H]3O[C@H]3CO)C[C@@H]2C)c2cc(Cl)c(-c3ccccc3F)nc21: true
- Cc1ccnc(C(C)C)c1-n1c(=O)nc(N2CCC3C2CN3C(=O)C2CO2)c2cc(Cl)c(-c3ccccc3F)nc21 (stereo not drawn): true
- Cc1ccnc(C(C)C)c1-n1c(=O)nc(N2CCN(C(=O)COc3c(F)c(F)cc(F)c3F)C[C@@H]2C)c2cc(Cl)c(-c3ccccc3F)nc21: false

---

- SYSTEM_NAME: GDP-KRAS G12D (Homo sapiens, UniProt P01116, C118A/G12D)
- MEASUREMENT_PROTOCOL: GDP-KRAS G12D RF-MS Assay
- Format: binding
- STUDY_CONDITIONS: 100 μM inhibitor, 20 h incubation, 2 uM KRAS G12D
PROPERTY_NAME: GDP-KRAS G12D RF-MS 100 μM 20 h Relative % Bound (%)

- Cc1ccnc(C(C)C)c1-n1c(=O)nc(N2CC[C@H](NC(=O)C3CO3)C2)c2cc(Cl)c(-c3ccccc3F)nc21 (stereo partly shown) [Example 35]: 3.4
- Cc1ccnc(C(C)C)c1-n1c(=O)nc(N2CCCC3C2CN3C(=O)C2CO2)c2cc(Cl)c(-c3ccccc3F)nc21 (stereo not shown) [Example 33]: 2
- Cc1ccnc(C(C)C)c1-n1c(=O)nc(N2CCC[C@H](NC(=O)C3CO3)C2)c2cc(Cl)c(-c3ccccc3F)nc21 (stereo partly shown) [Example 34]: 2.9
- Cc1ccnc(C(C)C)c1-n1c(=O)nc(N[C@@H]2CCN(C(=O)C3CO3)C2)c2cc(Cl)c(-c3ccccc3F)nc21 (stereo partly shown) [Example 32]: 3.1

---

- SYSTEM_NAME: GDP-KRAS G12D (Homo sapiens, UniProt P01116, C118A/G12D)
- MEASUREMENT_PROTOCOL: GDP-KRAS G12D RF-MS Assay
- Type: binding
- STUDY_CONDITIONS: 100 μM inhibitor, 20 h incubation, 2 uM KRAS G12D
Tick 1 (yes) if GDP-KRAS G12D RF-MS 100 μM 20 h Relative % Bound is 3% or greater. Tick 0 (no) if GDP-KRAS G12D RF-MS 100 μM 20 h Relative % Bound is less than 3%.

- Cc1ccnc(C(C)C)c1-n1c(=O)nc(NC2CN(C(=O)C3CO3)C2)c2cc(Cl)c(-c3ccccc3F)nc21 (stereo not drawn) [Example 31]: 0 (no)
- CCOC(=O)[C@@H]1O[C@H]1C(=O)N1CCN(c2nc(=O)n(-c3c(C)ccnc3C(C)C)c3nc(-c4ccccc4F)c(Cl)cc23)[C@@H](C)C1 [Example 19]: 1 (yes)
- Cc1ccnc(C(C)C)c1-n1c(=O)nc(N(C)C2CN(C(=O)[C@H]3CO3)C2)c2cc(Cl)c(-c3ccccc3F)nc21 [Example 30]: 0 (no)
- Cc1ccnc(C(C)C)c1-n1c(=O)nc(N2C[C@@H](C)N(C(=O)[C@H]3CO3)C[C@@H]2C)c2cc(Cl)c(-c3c(O)cccc3F)nc21 [Example 36]: 1 (yes)
- Cc1ccnc(C(C)C)c1-n1c(=O)nc(N2CCN(C(=O)[C@H]3CO3)C[C@@H]2C)c2cc(Cl)c(-c3ccccc3F)nc21 (atropisomer, axis not shown) [Example 16]: 1 (yes)
- Cc1ccnc(C(C)C)c1-n1c(=O)nc(N2C[C@@H](C)N(C(=O)[C@H]3CO3)C[C@@H]2C)c2cc(Cl)c(-c3c(N)cccc3F)nc21 [Example 37]: 1 (yes)

---

Consider the following compounds and their measured pIC50 readings.
- SYSTEM_NAME: GDP-bound KRAS protein (aa 1-169) G12D/C118A (Homo sapiens (Human), UniProt P01116, C118A/G12D)
- Sequence (P01116 other isoform, or with tags, fused parts or gaps G12D/C118A): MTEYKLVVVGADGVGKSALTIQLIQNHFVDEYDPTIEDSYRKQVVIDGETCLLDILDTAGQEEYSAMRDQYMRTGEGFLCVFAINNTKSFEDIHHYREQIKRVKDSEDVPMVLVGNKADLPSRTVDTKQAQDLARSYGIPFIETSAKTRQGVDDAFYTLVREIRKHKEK
- MEASUREMENT_PROTOCOL: Coupled Nucleotide Exchange Assay (KRAS G12D)
- Assay type: biochemical
- STUDY_CONDITIONS: 20 h compound pre-incubation; read-out: GDP KRAS G12D 20 h Coupled Exchange IC50 IP
- Experimental: Coupled Nucleotide Exchange Assay: Purified GDP-bound KRAS protein (aa 1-169), containing either G12C or G12D, as well as C118A amino acid substitutions and an N-terminal His-tag, was pre-incubated in assay buffer (25 mM HEPES pH 7.4, 10 mM MgCl2, and 0.01% Triton X-100) with a compound dose-response titration for either 5 min or 20 hours (see Table 15). […]
pIC50: −log10 of the molar value.
PROPERTY_NAME: pIC50

- CCOC(=O)[C@@H]1O[C@H]1C(=O)N1CCN(c2nc(=O)n(-c3c(C)ccnc3C(C)C)c3nc(-c4ccccc4F)c(Cl)cc23)[C@@H](C)C1: < 3.60
- Cc1ccnc(C(C)C)c1-n1c(=O)nc(N2CCN(C(=O)COc3ccccc3)C[C@@H]2C)c2cc(Cl)c(-c3ccccc3F)nc21: < 3.60
- Cc1ccnc(C(C)C)c1-n1c(=O)nc(N2CCCC3C2CN3C(=O)C2CO2)c2cc(Cl)c(-c3ccccc3F)nc21 (stereo not drawn): < 3.60

---

Entries and their IC50 values follow.
- SYSTEM_NAME: GDP-bound KRAS protein (aa 1-169) G12C/C118A (Homo sapiens (Human), UniProt P01116, C118A/G12C)
- MEASUREMENT_PROTOCOL: Coupled Nucleotide Exchange Assay (KRAS G12C)
- Format: biochemical
- STUDY_CONDITIONS: 20 h compound pre-incubation; read-out: GDP KRAS G12C 20 h Coupled Exchange IC50 IP
- Protocol: Coupled Nucleotide Exchange Assay: Purified GDP-bound KRAS protein (aa 1-169), containing either G12C or G12D, as well as C118A amino acid substitutions and an N-terminal His-tag, was pre-incubated in assay buffer (25 mM HEPES pH 7.4, 10 mM MgCl2, and 0.01% Triton X-100) with a compound dose-response titration for either 5 min or 20 hours (see Table 15). […]
PROPERTY_NAME: IC50 (nM)

• Cc1ccnc(C(C)C)c1-n1c(=O)nc(N2CCN(C(=O)[C@H]3CO3)C[C@@H]2C)c2cc(Cl)c(-c3ccccc3F)nc21 (atropisomer, axis not shown) [Example 16] = 27
• CCOC(=O)[C@H]1O[C@@H]1C(=O)N1CCN(c2nc(=O)n(-c3c(C)ccnc3C(C)C)c3nc(-c4ccccc4F)c(Cl)cc23)[C@@H](C)C1 [Example 18] = 530
• Cc1ccnc(C(C)C)c1-n1c(=O)nc(N2CC[C@@H](NC(=O)C3CO3)C2)c2cc(Cl)c(-c3ccccc3F)nc21 (stereo partly shown) [Example 26] = 2990
• Cc1ccnc(C(C)C)c1-n1c(=O)nc(N2CCN(C(=O)C3CO3)[C@@H](CC#N)C2)c2cc(Cl)c(-c3ccccc3F)nc21 (stereo partly shown) [Example 23] = 431

---

Some compounds, each annotated with its measured pIC50.
- SYSTEM_NAME: GDP-bound KRAS protein (aa 1-169) G12C/C118A (Homo sapiens (Human), UniProt P01116, C118A/G12C)
- MEASUREMENT_PROTOCOL: Coupled Nucleotide Exchange Assay (KRAS G12C)
- Assay type: biochemical
- STUDY_CONDITIONS: 5 min compound pre-incubation; read-out: GDP KRAS G12C 5 min Coupled Exchange IC50 IP
pIC50: −log10 of the molar value.
PROPERTY_NAME: pIC50

• CCOC(=O)[C@H]1O[C@@H]1C(=O)N1CCN(c2nc(=O)n(-c3c(C)ccnc3C(C)C)c3nc(-c4ccccc4F)c(Cl)cc23)[C@@H](C)C1 [Example 18] = 4.62
• Cc1ccnc(C(C)C)c1-n1c(=O)nc(N2CCC3C2CN3C(=O)C2CO2)c2cc(Cl)c(-c3ccccc3F)nc21 (stereo not drawn) [Example 28] = 3.71
• Cc1ccnc(C(C)C)c1-n1c(=O)nc(N2CCN(C(=O)COc3cccc(F)c3F)C[C@@H]2C)c2cc(Cl)c(-c3ccccc3F)nc21 [Example 12] = 4.45
